- PROTOCOL NOTES: label from the status in PepcDB records
OBSERVATION TYPE: protein production

Observe how each entry below is paired with its result.
>>> measured_result("MRNTNLQAMIESAILAAFALVIDILPLSIKLPTGGSISFAMIPIFIIAYRWGFKSAFLGGLVWGLLQIVVGDAYILTPVQAFIEYFIAFAFIGFAGLFYRPIQKALLTSNENNLEQSSLGSRKDKPSSKQNEGKKVLAYIILATFIGSFARYFCHFIAGIIFWGQYAPKGQSAVLYSLIVNGSTMIGSYILCTVLLIFLFLTSPRLFKSISAYQLNANKKGA")
"failed"
>>> measured_result("MEEMFETSLKVIEQSGWLAPVLFIMLHVFRQVFFIPVIIICLVGGYLFGSFYGSLYSIIGLTATSALFYGIVHGFPRFLAKVSQLKKRFLGEKESLSLPQMMLLRIVPFIHFHLVSLYVMETRPTFREYMKISFYLSMPPAIIYTLFGDMIHELPLVGTVVFALFIGLLCFMARRKEQRYAWQEFFKA")
"failed"
>>> measured_result("RFEHGTVLAECLSPASPDTSCELLKRAAKFLAYVHGSDDPASGRIGGVRKEVRNEVRMWLRAVLPDEPSDGANELFEEWWALLEGIGLPPQPRRDAHAFNWLVTDNDRIIAVDLEAARWRPMGYELAQLT")
"failed"
>>> measured_result("MNYSRIAEAIEYIRAHYKEQPGLDEVAEKVHLSPFHFQRIFTEWAGISPKKFLQYISLEHHHHHH")
"failed"
>>> measured_result("MAVNQDTLYVKGDRNVEVTKREVTLGDLVSMECSNRVILPHLKTMKVLKIPENGEKRYVISILKIIACIHEKYPGLEVQNLGETDLIVTYEMQKTPSK")
"not failed"
>>> measured_result("MIDILNLALPYFGLIFVGFACGRWKKLPEQGLVWMNFFLVFVSLPALFFRIMSKTPFEELNNLPFVLATTLATAIAFFLSGMLGRLIGKLSMREATMAALSGGYGNIGYMGPGLALAVLGTQAAAPTALIFCFDTIFLFSIVPLGMALTAADKRPLIPTIIAVLREILFHPLIVAAYCGAAAAAFHVELPVAVDKMLAFLQNAAAPVALFTLGVTVALRPFGRVPWEIPSLVAVKLLLHPVIVFCLVLAFGPFSPEWAATAVLMASLPPALNVFVIARQYNTWVEPASVAVLIGTFMSVVTLTTVMWLIRTGQIPFPA")
"failed"

Go through the items and report each one's protein production.
1. MKINWAENLRQNVHQLAESLGNLFVESFHYLALFAIGAVTAWAAVMEFLQMIEVGHIKIDDILLLFIYLELGAMVGIYFKTNHMPVRFLIYVAITALTRLLISNVSHHNPPDLGIIYLCGGILLLAFAILVVRYASSQFPSVKIEHPQRKIGAGSGEHPEVEKGEL
2. MTAVFRNTVLVRFKHCDAAGIVFYPRYFEMLNDFIEDWFAQALDWPFDAMHGAGQAGVPTADLHCRFVAPSRLGETLTRELRVVKLGQSSFTVQVRFMGPDSGLRLEVTQRLVCVDTDKIAPRPLPDPVRQAMATYVDETLAATGSPGL

Response given:
1. failed
2. not failed
